- EXPERIMENTAL TARGET: MER (Homo sapiens, UniProt Q12866)
- Sequence (Q12866 21-999): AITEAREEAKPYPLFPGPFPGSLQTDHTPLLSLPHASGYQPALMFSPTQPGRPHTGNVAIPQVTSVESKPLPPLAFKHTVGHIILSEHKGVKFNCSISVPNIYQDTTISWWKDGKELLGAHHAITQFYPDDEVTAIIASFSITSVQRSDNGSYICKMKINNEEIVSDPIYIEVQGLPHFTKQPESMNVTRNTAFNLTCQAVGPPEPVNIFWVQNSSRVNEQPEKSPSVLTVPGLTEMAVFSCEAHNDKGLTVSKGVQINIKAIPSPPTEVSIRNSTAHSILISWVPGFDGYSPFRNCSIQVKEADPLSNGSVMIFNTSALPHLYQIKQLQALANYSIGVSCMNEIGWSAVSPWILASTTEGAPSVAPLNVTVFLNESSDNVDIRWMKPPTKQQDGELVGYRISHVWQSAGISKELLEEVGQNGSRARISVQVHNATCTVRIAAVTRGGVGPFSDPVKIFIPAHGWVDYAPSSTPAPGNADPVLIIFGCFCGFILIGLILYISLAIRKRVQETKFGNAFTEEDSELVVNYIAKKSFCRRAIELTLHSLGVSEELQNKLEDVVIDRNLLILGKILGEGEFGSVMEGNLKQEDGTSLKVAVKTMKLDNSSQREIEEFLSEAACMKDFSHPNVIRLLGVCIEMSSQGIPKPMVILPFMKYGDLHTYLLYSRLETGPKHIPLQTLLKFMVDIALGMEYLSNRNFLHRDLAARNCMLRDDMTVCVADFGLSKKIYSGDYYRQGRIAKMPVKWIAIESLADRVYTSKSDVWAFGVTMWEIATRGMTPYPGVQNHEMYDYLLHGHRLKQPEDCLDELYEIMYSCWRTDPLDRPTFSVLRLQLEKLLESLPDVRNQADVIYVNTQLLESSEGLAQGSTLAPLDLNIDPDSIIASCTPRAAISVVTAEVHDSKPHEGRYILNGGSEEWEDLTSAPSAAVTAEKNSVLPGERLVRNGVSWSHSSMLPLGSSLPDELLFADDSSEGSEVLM
- MEASUREMENT NOTES: Enzymatic assay (ADP-Glo kinase reaction), MER
- Type: biochemical
- EXPERIMENTAL CONTEXT: 10 μM ATP, 60 min, ADP-GLO luminescence
ENDPOINT NAME: IC50

Here are 8 molecules together with their reported answers.
CC(C)n1cc(C(=O)Nc2ccc(Oc3ccnc(N)c3C#CCN3CCNCC3)c(F)c2)c(=O)n(-c2ccc(F)cc2)c1=O [Example 17]: < 10 nM
COCCN1CCN(C(=O)C#Cc2c(Oc3ccc(NC(=O)c4cn(C(C)C)c(=O)n(-c5ccc(F)cc5)c4=O)cc3F)ccnc2N)CC1 [Example 2]: < 10 nM
CC(C)N1CCC(CC#Cc2c(Oc3ccc(NC(=O)c4cn(C(C)C)c(=O)n(-c5ccc(F)cc5)c4=O)cc3F)ccnc2N)CC1 [Example 29]: < 10 nM
Nc1nccc(Oc2ccc(NC(=O)c3c[nH]c(=O)n(-c4ccc(F)cc4)c3=O)cc2F)c1C#CCC1CCNCC1 [Example 53]: < 10 nM
CC(C)n1cc(C(=O)Nc2ccc(Oc3ccnc(N)c3/C=C/C(=O)N3CCNCC3)c(F)c2)c(=O)n(-c2ccc(F)cc2)c1=O [Example 3]: < 10 nM
CC(C)(C#Cc1c(Oc2ccc(NC(=O)c3cn(C4CCOCC4)c(=O)n(-c4ccc(F)cc4)c3=O)cc2F)ccnc1N)N1CCNCC1 [Example 58]: < 10 nM
CC(C)n1cc(C(=O)Nc2ccc(Oc3ccnc(N)c3C#CC3CCN(C)CC3)c(F)c2)c(=O)n(-c2ccc(F)cc2)c1=O [Example 23]: < 10 nM
Cn1nc(C(=O)Nc2ccc(Oc3ccnc(N)c3C#CC(C)(C)N3CCNCC3)c(F)c2)c(=O)n(-c2ccc(F)cc2)c1=O [Example 47]: < 100 nM

Now take the following molecule into account.
Challenge: Please provide the recorded IC50 for COCCN1CCN(CC#Cc2c(Oc3ccc(NC(=O)c4cn(C(C)C)c(=O)n(-c5ccc(F)cc5)c4=O)cc3F)ccnc2N)CC1 [Example 18] , tested on MER (Homo sapiens, UniProt Q12866).
Response given: < 10 nM

src = patent US20250171426A1
